Measured EC50 of individual entries
Assay Target: Alkaline phosphatase, placental type (Homo sapiens)
Protocol Description: PLAP enzyme activators, dose response, mouse IAP activator project, biochemical, uHTS hits (AID 488878)
Condition Label: purified human PLAP enzyme activity
The source made the active and inactive calls. The rule behind the calls is not given here.
Observed Property: EC50

[
  {
    "Smiles Structure": "O=S(=O)(c1cc(O)ccc1O)c1cccc2c(S(=O)(=O)c3cc(O)ccc3O)cccc12",
    "Observed Property": "EC50",
    "Assay Result": "24.3 µM"
  },
  {
    "Smiles Structure": "O=C1NC(=S)NC(=O)C1=Cc1ccc2c(c1)CCN2CCCCl",
    "Observed Property": "EC50",
    "Assay Result": "57.5 µM"
  },
  {
    "Smiles Structure": "COc1cc(/C=C(\\C#N)C(=O)c2ccc(O)c(O)c2)cc(I)c1O",
    "Observed Property": "EC50",
    "Assay Result": "> 100 µM (inactive)"
  },
  {
    "Smiles Structure": "Cc1cc(O)c2c(c1O)C(=O)[C@]13C(=C2O)C(=O)[C@@H]2[C@@H](O)[C@H]1[C@@H]1[C@H](O)[C@H]3C(=O)C3=C(O)c4c(O)cc(C)c(O)c4C(=O)[C@]312",
    "Observed Property": "EC50",
    "Assay Result": "66.3 µM"
  },
  {
    "Smiles Structure": "O=[N+]([O-])c1cc(S(=O)(=O)c2ccc(O)c([N+](=O)[O-])c2)ccc1O",
    "Observed Property": "EC50",
    "Assay Result": "> 100 µM (inactive)"
  },
  {
    "Smiles Structure": "N#C/C(=C\\c1ccc(O)c(O)c1)C(=O)c1ccc(O)c(O)c1",
    "Observed Property": "EC50",
    "Assay Result": "8.03 µM"
  },
  {
    "Smiles Structure": "Cc1c(CN2CCC(C(=O)Nc3cccc(-c4cccc(Cl)c4)c3)CC2)cnn1C",
    "Observed Property": "EC50",
    "Assay Result": "71.6 µM"
  },
  {
    "Smiles Structure": "Cc1ccc(/C=C2/SC(=O)NC2=S)o1",
    "Observed Property": "EC50",
    "Assay Result": "55.9 µM"
  },
  {
    "Smiles Structure": "Nc1cc2nc3ccccc3oc-2cc1=O",
    "Observed Property": "EC50",
    "Assay Result": "57.2 µM"
  },
  {
    "Smiles Structure": "CN(CC(=O)Nc1cccc(Cl)c1)S(=O)(=O)c1ccc2[nH]c(=O)oc2c1",
    "Observed Property": "EC50",
    "Assay Result": "> 100 µM (inactive)"
  },
  {
    "Smiles Structure": "Oc1ccc(-c2cn3c(n2)SCC3)cc1O",
    "Observed Property": "EC50",
    "Assay Result": "55.6 µM"
  },
  {
    "Smiles Structure": "O=C(CN1CCN(c2ccccc2F)CC1)c1ccc(O)c(O)c1",
    "Observed Property": "EC50",
    "Assay Result": "> 100 µM (inactive)"
  }
]

====

Assay Target: Alkaline phosphatase, placental type (Homo sapiens) (UniProt P05187)
Protocol Description: PLAP enzyme activators, dose response, mouse IAP activator project, biochemical, uHTS hits (AID 488878)
Condition Label: purified human PLAP enzyme activity
Calls of active or inactive are those of the source. The rule behind the calls is not given here.

[
  {
    "Compound": "O=C(NNC(=S)NC(=O)c1cccs1)c1ccc(O)cc1",
    "Assay Target": "Alkaline phosphatase, placental type (Homo sapiens) (UniProt P05187)",
    "EC50": "36.8 µM"
  },
  {
    "Compound": "Oc1ccc(/C=N/Nc2cc(N3CCCC3)nc(N3CCCC3)n2)cc1O",
    "Assay Target": "Alkaline phosphatase, placental type (Homo sapiens) (UniProt P05187)",
    "EC50": "> 100 µM (inactive)"
  },
  {
    "Compound": "Cc1ccc(NC(=O)CCNS(=O)(=O)c2ccc3[nH]c(=O)oc3c2)cc1F",
    "Assay Target": "Alkaline phosphatase, placental type (Homo sapiens) (UniProt P05187)",
    "EC50": "> 100 µM (inactive)"
  },
  {
    "Compound": "Cc1ccc(NC(=O)CCNS(=O)(=O)c2ccc3[nH]c(=O)oc3c2)c(Cl)c1",
    "Assay Target": "Alkaline phosphatase, placental type (Homo sapiens) (UniProt P05187)",
    "EC50": "26.3 µM"
  },
  {
    "Compound": "Oc1cc2c(cc1O)C1c3ccc(O)c(O)c3OCC1(O)C2 (stereo not given)",
    "Assay Target": "Alkaline phosphatase, placental type (Homo sapiens) (UniProt P05187)",
    "EC50": "60.4 µM"
  },
  {
    "Compound": "O=C(/C=C/c1ccco1)NC(=S)Nc1cccc(C(=O)O)c1",
    "Assay Target": "Alkaline phosphatase, placental type (Homo sapiens) (UniProt P05187)",
    "EC50": "46.8 µM"
  },
  {
    "Compound": "CN(CCO)c1ccc(C=NNc2ccc([N+](=O)[O-])cc2S(=O)(=O)Nc2ccccc2C(=O)O)cc1",
    "Assay Target": "Alkaline phosphatase, placental type (Homo sapiens) (UniProt P05187)",
    "EC50": "26 µM"
  },
  {
    "Compound": "Cc1ccc(C)c(S(=O)(=O)Nc2ccc(O)c(Sc3ncn[nH]3)c2)c1",
    "Assay Target": "Alkaline phosphatase, placental type (Homo sapiens) (UniProt P05187)",
    "EC50": "13.1 µM"
  },
  {
    "Compound": "CCOC(=O)C(C)Sc1nc2c(c(=O)[nH]c(=O)n2C)n1C/C=C(/C)Cl (stereo not given)",
    "Assay Target": "Alkaline phosphatase, placental type (Homo sapiens) (UniProt P05187)",
    "EC50": "84.8 µM"
  },
  {
    "Compound": "O=C(N/N=C/c1ccc([N+](=O)[O-])o1)c1sc2ccccc2c1Cl",
    "Assay Target": "Alkaline phosphatase, placental type (Homo sapiens) (UniProt P05187)",
    "EC50": "> 100 µM (inactive)"
  }
]

====

Assay Target: Alkaline phosphatase, placental type (Homo sapiens) (UniProt P05187)
Protocol Description: PLAP enzyme activators, dose response, mouse IAP activator project, biochemical, uHTS hits (AID 488878)
Condition Label: purified human PLAP enzyme activity
The source made the active and inactive calls. How the calls were made is not given here.
Possible outcomes: TRUE (active), FALSE (inactive)

[
  {
    "Compound": "CN(C)c1ccc(N=Nc2nc3ccccc3n2C)cc1",
    "Assay Target": "Alkaline phosphatase, placental type (Homo sapiens) (UniProt P05187)",
    "Assigned Category": "TRUE"
  },
  {
    "Compound": "O=C(CCCN1C(=O)/C(=C\\c2ccco2)SC1=S)Nc1ccc(O)cc1C(=O)O",
    "Assay Target": "Alkaline phosphatase, placental type (Homo sapiens) (UniProt P05187)",
    "Assigned Category": "TRUE"
  },
  {
    "Compound": "Cc1ccc(C)c(NC(=O)CCNS(=O)(=O)c2ccc3[nH]c(=O)oc3c2)c1",
    "Assay Target": "Alkaline phosphatase, placental type (Homo sapiens) (UniProt P05187)",
    "Assigned Category": "FALSE"
  },
  {
    "Compound": "Cc1cc(C)c(S(=O)(=O)Nc2ccc(O)c(Sc3ncn[nH]3)c2)cc1C",
    "Assay Target": "Alkaline phosphatase, placental type (Homo sapiens) (UniProt P05187)",
    "Assigned Category": "TRUE"
  },
  {
    "Compound": "O=C(O)CC(C(=O)O)N1C(=O)/C(=C/c2ccc(-c3nc4ccccc4s3)o2)SC1=S (stereo unspecified)",
    "Assay Target": "Alkaline phosphatase, placental type (Homo sapiens) (UniProt P05187)",
    "Assigned Category": "TRUE"
  },
  {
    "Compound": "O=C(CCN1C(=O)/C(=C/c2ccco2)SC1=S)Nc1ccc(C(=O)O)c(O)c1",
    "Assay Target": "Alkaline phosphatase, placental type (Homo sapiens) (UniProt P05187)",
    "Assigned Category": "TRUE"
  },
  {
    "Compound": "CCn1nc(C)c(CN2CCC(C(=O)Nc3cccc(-c4cccc(F)c4)c3)CC2)c1C",
    "Assay Target": "Alkaline phosphatase, placental type (Homo sapiens) (UniProt P05187)",
    "Assigned Category": "TRUE"
  },
  {
    "Compound": "O=C1CC(c2ccc(O)c(O)c2)Oc2cc(O)cc(O)c21 (stereo unspecified)",
    "Assay Target": "Alkaline phosphatase, placental type (Homo sapiens) (UniProt P05187)",
    "Assigned Category": "TRUE"
  },
  {
    "Compound": "NS(=O)(=O)c1ccc(-c2ccc(/C=C3\\SC(=S)N(C4CCS(=O)(=O)C4)C3=O)o2)cc1 (stereo unspecified)",
    "Assay Target": "Alkaline phosphatase, placental type (Homo sapiens) (UniProt P05187)",
    "Assigned Category": "TRUE"
  },
  {
    "Compound": "O=C(O)Cc1ccc(O)c(O)c1",
    "Assay Target": "Alkaline phosphatase, placental type (Homo sapiens) (UniProt P05187)",
    "Assigned Category": "FALSE"
  },
  {
    "Compound": "O=C(CSc1n[nH]c(-c2ccccc2)n1)c1ccc(O)c(O)c1",
    "Assay Target": "Alkaline phosphatase, placental type (Homo sapiens) (UniProt P05187)",
    "Assigned Category": "TRUE"
  },
  {
    "Compound": "Oc1cc(O)c2c(c1)O[C@H](c1ccc(O)c(O)c1)[C@H](O)C2",
    "Assay Target": "Alkaline phosphatase, placental type (Homo sapiens) (UniProt P05187)",
    "Assigned Category": "TRUE"
  },
  {
    "Compound": "CC1CC(=O)c2c(cc3c(-c4c(O)cc(O)c5c(O)c6c(cc45)OC(C)CC6=O)c(O)cc(O)c3c2O)O1 (stereo unspecified)",
    "Assay Target": "Alkaline phosphatase, placental type (Homo sapiens) (UniProt P05187)",
    "Assigned Category": "TRUE"
  },
  {
    "Compound": "CCOC(=O)CN1C(=O)/C(=C2\\SC(=S)N(NC(=O)c3cccnc3)C2=O)c2ccccc21",
    "Assay Target": "Alkaline phosphatase, placental type (Homo sapiens) (UniProt P05187)",
    "Assigned Category": "TRUE"
  },
  {
    "Compound": "CCN1/C(=C/C=C/c2oc3ccc(-c4ccccc4)cc3[n+]2CC)Oc2ccc(-c3ccccc3)cc21",
    "Assay Target": "Alkaline phosphatase, placental type (Homo sapiens) (UniProt P05187)",
    "Assigned Category": "TRUE"
  },
  {
    "Compound": "CCN1/C(=C/c2ccc3cc(C)ccc3[n+]2CC)Sc2ccc3sccc3c21",
    "Assay Target": "Alkaline phosphatase, placental type (Homo sapiens) (UniProt P05187)",
    "Assigned Category": "TRUE"
  },
  {
    "Compound": "CCn1c(CSc2nc3ccccc3s2)nnc1SCC(=O)c1ccc(O)c(O)c1",
    "Assay Target": "Alkaline phosphatase, placental type (Homo sapiens) (UniProt P05187)",
    "Assigned Category": "TRUE"
  },
  {
    "Compound": "Cc1cc(/C=C2\\SC(=S)NC2=O)c(C)[nH]1",
    "Assay Target": "Alkaline phosphatase, placental type (Homo sapiens) (UniProt P05187)",
    "Assigned Category": "TRUE"
  },
  {
    "Compound": "COc1ccc(OC)c(S(=O)(=O)Nc2ccc(O)c(Sc3ncn[nH]3)c2)c1",
    "Assay Target": "Alkaline phosphatase, placental type (Homo sapiens) (UniProt P05187)",
    "Assigned Category": "TRUE"
  },
  {
    "Compound": "O=C1/C(=C/C=C/c2ccco2)SC(=S)N1c1ccc(O)cc1",
    "Assay Target": "Alkaline phosphatase, placental type (Homo sapiens) (UniProt P05187)",
    "Assigned Category": "TRUE"
  },
  {
    "Compound": "Cc1ccc(N2C(=O)/C(=C/c3ccc(CN(CCC#N)S(C)(=O)=O)o3)C(=O)NC2=S)cc1",
    "Assay Target": "Alkaline phosphatase, placental type (Homo sapiens) (UniProt P05187)",
    "Assigned Category": "TRUE"
  }
]
